Reference source for all entries: ChEMBL document CHEMBL4513216

System: Plasmodium berghei
ASSAY TEXT: Screen against P. berghei liver stage (PbLuc), transformed with Luciferase, at 10uM
Type: functional, HepG2
CONDITION DETAILS: tested at 10 uM
Out of some 69,000 compounds screened, about 8,600 (12%) showed an effect of 50% or more. For the sample, strong results were picked, then their nearest neighbours and some compounds at random.
Give measured INHIBITION for each item. Keep answers brief.
Note: unit % is implicit; provide only the numeric part.

**Query** So what's the measured INHIBITION for this one? CSC(C)C(=O)N1CCCN(Cc2cnn(C(C)C)c2)CC1 (stereo not given)
**Result** -19.9

**Query** So what's the measured INHIBITION for this one? CC[C@H]1CN(C(=O)c2ccc(-n3cnnc3)nc2)CC[C@@]1(C)O
**Result** 53.8

**Query** So what's the measured INHIBITION for this one? O=S(=O)(CCCN1CCc2c(ncn2C2CC2)C1)c1ccccc1
**Result** -27.5

**Query** So what's the measured INHIBITION for this one? CCc1nc(C)sc1CN1CC[C@](C)(O)[C@H](C)C1
**Result** 48.5

**Query** So what's the measured INHIBITION for this one? Cc1nc(NCc2ccco2)nc2c1COCC21CCNC1 (stereo not given)
**Result** 55.5

**Query** So what's the measured INHIBITION for this one? c1cncc(CN(CCCn2ccnc2)CC2CCOC2)c1 (stereo not given)
**Result** 44.8

**Query** So what's the measured INHIBITION for this one? Cc1ccc(-c2nc(CNCC3CN(C)CCO3)cs2)o1 (stereo not given)
**Result** 41.4

**Query** So what's the measured INHIBITION for this one? CCc1nc(C)sc1CNC1CCN(Cc2ccccc2)C1 (stereo not given)
**Result** 51.1

**Query** So what's the measured INHIBITION for this one? Fc1ccccc1CN(CCCn1ccnc1)CC1CCOC1 (stereo not given)
**Result** 1.62

**Query** So what's the measured INHIBITION for this one? OCc1ccc(CN(CCCn2ccnc2)Cc2cccnc2)o1
**Result** 56

**Query** So what's the measured INHIBITION for this one? CC[C@H]1CN(C(=O)c2cccc(-n3cnnc3)n2)CC[C@@]1(C)O
**Result** -0.71

**Query** So what's the measured INHIBITION for this one? CCn1cc(CN2CCCN(C(=O)c3sccc3C#N)CC2)cn1
**Result** 24

**Query** So what's the measured INHIBITION for this one? c1coc(CNc2ncc3c(n2)C2(CCNC2)COC3)c1 (stereo not given)
**Result** 29.8

**Query** So what's the measured INHIBITION for this one? CCc1nnc2n1CCN(C(=O)c1cnc(-c3cccs3)s1)C2
**Result** 19.3

**Query** So what's the measured INHIBITION for this one? OCc1ccc(CN(CCCn2ccnc2)Cc2ccncc2)o1
**Result** 42.1

**Query** So what's the measured INHIBITION for this one? CC(C)OCCCN(Cc1ccncc1)Cc1cc(F)ccc1F
**Result** -16.5

**Query** So what's the measured INHIBITION for this one? Cc1nc(CNC2CCN(Cc3ccccc3)C2)sc1C (stereo not given)
**Result** 47.9

**Query** So what's the measured INHIBITION for this one? Cc1nc(NCC2CC2)nc2c1COCC21CCNC1 (stereo not given)
**Result** 38.1

**Query** So what's the measured INHIBITION for this one? CC(C)N1CCO[C@@H]2CN(S(=O)(=O)c3cccs3)CC[C@@H]2C1
**Result** 42.4

**Query** So what's the measured INHIBITION for this one? Cc1ccccc1OCCC(=O)OC(C)C(=O)Nc1sccc1C(N)=O (stereo not given)
**Result** 45.1

**Query** So what's the measured INHIBITION for this one? CCc1csc(CNC2CCN(Cc3ccccc3)C2)n1 (stereo not given)
**Result** 64

**Query** So what's the measured INHIBITION for this one? CN(C)Cc1cnn(-c2ccccc2C(=O)N(C)Cc2ccccc2)c1
**Result** -52.6

**Query** So what's the measured INHIBITION for this one? CCc1ncc(C(=O)N2CCn3c(CC)nnc3C2)s1
**Result** 53.9

**Query** So what's the measured INHIBITION for this one? Cc1csc(CN(C)CCOc2ccccc2)n1
**Result** -4.23

**Query** So what's the measured INHIBITION for this one? O=C(c1ccc(-n2cnnc2)nc1)N1CCCC(O)(CO)CC1 (stereo not given)
**Result** 8.38
